src = patent US12037324B2

MEASURED_TARGET: AGTR1 (Homo sapiens, UniProt P30556)
Construct: host or cells: Pathunter CHO-K1 AGTR1 β-arrestin cell line (CHO-K1)
Sequence (P30556 1-359): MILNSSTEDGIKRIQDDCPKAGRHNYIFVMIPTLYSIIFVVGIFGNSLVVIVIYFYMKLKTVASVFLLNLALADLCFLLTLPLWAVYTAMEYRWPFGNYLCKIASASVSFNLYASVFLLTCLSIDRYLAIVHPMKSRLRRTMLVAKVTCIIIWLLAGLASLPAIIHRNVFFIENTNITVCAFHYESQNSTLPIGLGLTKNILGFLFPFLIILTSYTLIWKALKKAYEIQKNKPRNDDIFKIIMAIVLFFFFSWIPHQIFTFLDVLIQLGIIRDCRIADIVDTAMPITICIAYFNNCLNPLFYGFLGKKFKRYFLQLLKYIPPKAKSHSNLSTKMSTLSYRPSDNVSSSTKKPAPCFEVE
METHOD_DESCRIPTION: DiscoveRx IP1 accumulation assay (HTRF), agonist mode, Pathunter CHO-K1 AGTR1 β-arrestin cell line
Type: cell-based
Provide the recorded IP-1 Ymax (%) for the entries that follow.
Answers are plain numbers, in %.

CCc1nc2c(C)cc(C)nc2n1Cc1ccc(-c2cc(-c3ccccc3F)ccc2-c2nn[nH]n2)cc1 [Example 19]: 12.2

Report IP-1 Ymax (%) for every entry below.
1. CCc1nc2c(C)cc(C)nc2n1Cc1ccc(-c2cc(-c3cncc(C)c3)ccc2-c2nn[nH]n2)cc1 [Example 60]
2. CCc1nc2c(C)cc(C)nc2n1Cc1ccc(-c2cc(C3=NCCC3)ccc2-c2nn[nH]n2)cc1 [Example 77]
3. CCc1nc2c(C)cc(C)nc2n1Cc1ccc(-c2cc(-c3cccc(C)n3)ccc2-c2nn[nH]n2)cc1 [Example 59]
4. CCc1nc2c(C)cc(C)nc2n1Cc1ccc(-c2cc(-c3cc(C)cc(C)c3)ccc2-c2nn[nH]n2)cc1 [Example 9]
5. CCCCC1=NC2(CCCC2)C(=O)N1Cc1ccc(-c2cc(N3CCCC(F)(F)C3)ccc2-c2noc(=O)[nH]2)cc1 [Example 121]

Found:
1: 5.3; 2: 7.1; 3: 10.4; 4: 7.1; 5: 7.2

Report IP-1 Ymax (%) for every entry below.
1. CCCC1=NC2(CCOC2)C(=O)N1Cc1ccc(-c2cc(-c3ccccc3O)ccc2-c2nnn[nH]2)cc1 (single isomer, unassigned) [Example 160]
2. CCc1nc2c(C)cc(C)nc2n1Cc1cnc(-c2cc(-c3cccc(C)c3)ccc2C(=O)O)cn1 [Example 199]
3. CCc1nc2c(C)cc(C)nc2n1Cc1ccc(-c2cc(N3CCC(OC)CC3)ccc2-c2nn[nH]n2)cc1 [Example 87]
4. CCCCC1=NC2(CCCC2)C(=O)N1Cc1ccc(-c2cc(-c3ccccc3)ccc2C(=O)O)cc1 [Example 145]
5. CCc1nc2c(C)cc(C)nc2n1Cc1ccc(-c2cc(Oc3cccnc3)ccc2-c2nnn[nH]2)cc1 [Example 257]

Found:
[15.8, 9.3, 7.2, 3.1, 10.7]

Lookup: Provide value of IP-1 Ymax (%) for this record tested with AGTR1 (Homo sapiens, UniProt P30556): CCCCOC(=O)NS(=O)(=O)c1sc(-c2cccnc2OC)cc1-c1ccc(Cn2c(CC)nc3c(C)cc(C)nc32)cc1 [Example 47]
Found: 3.8

* * *

Provide the recorded EC50 for the entries that follow.
MEASURED_TARGET: hAT1R (Homo sapiens)
METHOD_DESCRIPTION: BRET β-arrestin2 biosensor assay, higher receptor expression (hAT1R 5 ng/well), HEK293 cells
Assay type: cell-based
EXPERIMENTAL_SETUP: High AT1R Expression
Numbers only, in nM.

Report EC50 for every entry below.
1. CCCc1nc(C(C)(C)O)c(C(=O)O)n1Cc1ccc(-c2cc(-c3ccccc3)ccc2-c2nn[nH]n2)cc1 [Example 402]
2. CCCCc1ncc(C(=O)NCCC2CC2)n1Cc1ccc(-c2cc(-c3ccccc3)ccc2-c2nn[nH]n2)cc1 [Example 357]

Found:
[17.9, 23.4]

Report EC50 for every entry below.
1. CCc1nc2c(C)cc(C)nc2n1Cc1ccc(-c2cc(-c3cccc(C)c3)ccc2C(=O)O)cc1 [Example 182]
2. CCC1=NC2(CCCC2)C(=O)N1Cc1ccc(-c2cc(-c3ccccc3)ccc2-c2nn[nH]n2)cc1 [Example 112]
3. CCCCC1=NC2(CCCC2)C(=O)N1Cc1ccc(-c2cc(-c3cncc(C)c3)ccc2-c2nn[nH]n2)cc1 [Example 129]

Found:
1. 7
2. 30.6
3. 240

* * *

MEASURED_TARGET: AGTR1 (Homo sapiens)
Construct: host or cells: Pathunter CHO-K1 AGTR1 β-arrestin cell line (CHO-K1)
METHOD_DESCRIPTION: DiscoveRx IP1 accumulation assay (HTRF), agonist mode, Pathunter CHO-K1 AGTR1 β-arrestin cell line
Format: cell-based
Procedure: In one aspect of the invention, signaling bias of compounds was assessed by comparing the relative activity of compounds to activate both the β-arrestin and Gq signaling pathways. […] Gq activation can be assessed by measuring the accumulation of inositol phosphates (e.g. IP3, IP1) that are liberated following activation of phospholipase C by Gq (Thomsen, Frazer et al. 2005). […] IP1 accumulation was measured in both agonist and antagonist modes. […]
Response field label takes Condition met when IP-1 Ymax (%) is strictly below 8% and Condition not met in all other cases.

Consider the worked cases shown below.
CCCC1=NC2(CCCC2)C(=O)N1Cc1ccc(-c2cc(-c3ccccc3)ccc2-c2nn[nH]n2)cc1: Condition not met
CCCCC1=NC2(CCCC2)C(=O)N1Cc1ccc(-c2cc(-c3cc(C)ccn3)ccc2-c2nn[nH]n2)cc1: Condition not met

Next, consider the following molecule.
Lookup: Hello, I'm reviewing records and need to know if IP-1 Ymax (%) of CCC1=NC2(CCCC2)C(=O)N1Cc1ccc(-c2cc(-c3ccccc3)ccc2-c2nn[nH]n2)cc1 is below 8%. Could you check?
Found: Condition met

* * *

Provide the recorded pEC50 for the entries that follow.
MEASURED_TARGET: hAT1R (Homo sapiens, UniProt P30556)
Sequence (P30556 1-359): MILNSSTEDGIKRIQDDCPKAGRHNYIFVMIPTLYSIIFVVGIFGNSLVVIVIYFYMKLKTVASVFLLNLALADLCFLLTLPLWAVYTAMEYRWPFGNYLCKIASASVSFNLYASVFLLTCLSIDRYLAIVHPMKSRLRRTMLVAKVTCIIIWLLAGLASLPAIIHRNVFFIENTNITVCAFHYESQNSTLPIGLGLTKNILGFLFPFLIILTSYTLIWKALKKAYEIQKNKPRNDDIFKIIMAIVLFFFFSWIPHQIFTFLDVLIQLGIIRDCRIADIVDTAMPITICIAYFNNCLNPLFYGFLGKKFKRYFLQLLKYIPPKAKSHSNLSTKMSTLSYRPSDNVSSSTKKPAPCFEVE
METHOD_DESCRIPTION: BRET β-arrestin2 biosensor assay, higher receptor expression (hAT1R 5 ng/well), HEK293 cells
Type: cell-based
EXPERIMENTAL_SETUP: High AT1R Expression
Give bare numbers, as −log10 of the molar value.

Below are worked cases with known answers.
CCc1nc2c(C)cc(C)nc2n1Cc1ccc(-c2cc(Oc3ccccc3F)ccc2-c2nnn[nH]2)cc1: 8.32
CCc1nc2c(C)cc(C)nc2n1Cc1ccc(-c2cc(N3CCCC(F)(F)C3)ccc2-c2nn[nH]n2)cc1: 7.28
CCCc1nc(CC)c(C(=O)OCC)n1Cc1ccc(-c2cc(-c3ccccc3)ccc2-c2nn[nH]n2)cc1: 7.69

Lookup: Consider the compound CCc1nc2c(C)cc(C)nc2n1Cc1ccc(-c2cc(Oc3ccccc3F)ccc2-c2noc(=O)[nH]2)cc1 and give its measured pEC50.
Found: 8.38

* * *

Provide the recorded IP-1 Ymax (%) for the entries that follow.
MEASURED_TARGET: AGTR1 (Homo sapiens, UniProt P30556)
Construct: host or cells: Pathunter CHO-K1 AGTR1 β-arrestin cell line (CHO-K1)
Sequence (P30556 1-359): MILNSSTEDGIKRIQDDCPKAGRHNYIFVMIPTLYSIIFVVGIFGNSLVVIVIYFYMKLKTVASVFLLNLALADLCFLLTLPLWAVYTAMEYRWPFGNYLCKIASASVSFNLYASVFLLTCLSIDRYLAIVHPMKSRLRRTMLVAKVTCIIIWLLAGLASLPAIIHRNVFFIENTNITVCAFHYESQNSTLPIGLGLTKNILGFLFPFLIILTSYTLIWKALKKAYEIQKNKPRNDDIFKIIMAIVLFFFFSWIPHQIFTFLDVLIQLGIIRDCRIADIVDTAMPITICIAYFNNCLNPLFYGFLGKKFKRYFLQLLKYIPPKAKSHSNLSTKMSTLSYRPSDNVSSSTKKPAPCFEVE
METHOD_DESCRIPTION: DiscoveRx IP1 accumulation assay (HTRF), agonist mode, Pathunter CHO-K1 AGTR1 β-arrestin cell line
Format: cell-based
Method: In one aspect of the invention, signaling bias of compounds was assessed by comparing the relative activity of compounds to activate both the β-arrestin and Gq signaling pathways. […] Gq activation can be assessed by measuring the accumulation of inositol phosphates (e.g. IP3, IP1) that are liberated following activation of phospholipase C by Gq (Thomsen, Frazer et al. 2005). […] IP1 accumulation was measured in both agonist and antagonist modes. […]

Below are worked cases with known answers.
CCc1nc2c(C)cc(C)nc2n1Cc1ccc(-c2cc(-c3ccccc3)ccc2C(=O)O)cn1: 12.1%
CCc1nc2c(C)cc(C)nc2n1Cc1ccc(-c2cc(-c3ccc(OC(F)(F)F)cc3)ccc2-c2nn[nH]n2)cc1: 4.9%

Then there is this compound:
Lookup: Consider the compound Cc1ccnc(-c2ccc(-c3nn[nH]n3)c(-c3ccc(CN4C(=O)C5(CCCC5)N=C4C4CC4)cc3)c2)c1 and give its measured IP-1 Ymax (%).
Found: 20.7%
